Would you kindly list Vd for each of these molecules?
Assay: Volume of distribution at steady state in dog
Format: ADME, organism-based, Canis lupus familiaris
Settings: in vivo, read-out: Vdss
Numbers only, in L/kg.

| smiles_text | unit_annotation | Vd |
| --- | --- | --- |
| Cc1csc(C(=O)N[C@H]2CC[C@@H](NC(=O)c3cc(F)cnc3Oc3cccc(-c4ccc(CN5C[C@@H](C)N[C@@H](C)C5)cc4CN4CCOCC4)c3)CC2)n1 | L/kg | 26 |

Would you kindly look at the next entry?
Ask: So what does the record say about Vd for `Cc1ccc(O)c(C(=O)N[C@H]2CC[C@@H](NC(=O)c3cc(F)cnc3Oc3cccc(-c4ccc(CN5C[C@@H](C)N[C@@H](C)C5)cc4CN4CCOCC4)c3)CC2)c1` ?
Reply: 13

* * *

Would you kindly list clearance for each of these molecules?
Assay: Clearance in dog
Assay type: ADME, organism-based, Canis lupus familiaris
Settings: in vivo
Answers are plain numbers, in mL/min/kg.

| smiles_text | clearance, mL/min/kg |
| --- | --- |
| Cc1csc(C(=O)N[C@H]2CC[C@@H](NC(=O)c3cc(F)cnc3Oc3cccc(-c4ccc(CN5C[C@@H](C)N[C@@H](C)C5)cc4CN4CCOCC4)c3)CC2)n1 | 34 |

Would you kindly look at the next entry?
Ask: So what does the record say about clearance for `Cc1ccc(O)c(C(=O)N[C@H]2CC[C@@H](NC(=O)c3cc(F)cnc3Oc3cccc(-c4ccc(CN5C[C@@H](C)N[C@@H](C)C5)cc4CN4CCOCC4)c3)CC2)c1` ?
Reply: 19

* * *

Molecular target: UniProt:P27815
Sequence (P27815 whole entry): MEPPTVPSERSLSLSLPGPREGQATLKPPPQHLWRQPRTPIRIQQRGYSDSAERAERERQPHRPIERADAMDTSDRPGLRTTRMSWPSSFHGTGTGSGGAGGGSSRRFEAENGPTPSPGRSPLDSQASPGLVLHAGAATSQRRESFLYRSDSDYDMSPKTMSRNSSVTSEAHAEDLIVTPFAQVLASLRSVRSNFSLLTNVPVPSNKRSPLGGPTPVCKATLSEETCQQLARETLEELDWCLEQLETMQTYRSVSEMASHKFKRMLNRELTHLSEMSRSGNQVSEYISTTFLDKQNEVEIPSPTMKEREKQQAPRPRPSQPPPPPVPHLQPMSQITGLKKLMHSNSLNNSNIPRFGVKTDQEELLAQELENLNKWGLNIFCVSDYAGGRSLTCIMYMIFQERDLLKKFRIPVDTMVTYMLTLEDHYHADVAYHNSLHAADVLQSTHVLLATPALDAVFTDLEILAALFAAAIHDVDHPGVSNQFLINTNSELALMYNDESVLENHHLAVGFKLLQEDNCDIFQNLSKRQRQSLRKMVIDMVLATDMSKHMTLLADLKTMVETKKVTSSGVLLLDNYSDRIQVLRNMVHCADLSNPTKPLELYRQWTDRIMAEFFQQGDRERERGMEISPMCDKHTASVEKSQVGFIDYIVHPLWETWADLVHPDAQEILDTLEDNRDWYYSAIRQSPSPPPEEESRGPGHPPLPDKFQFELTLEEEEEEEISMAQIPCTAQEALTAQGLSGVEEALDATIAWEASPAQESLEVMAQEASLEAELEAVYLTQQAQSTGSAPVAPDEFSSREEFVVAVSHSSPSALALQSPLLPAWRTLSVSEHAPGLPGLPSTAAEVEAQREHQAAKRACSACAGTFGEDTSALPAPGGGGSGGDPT
Test: Inhibition of human PDE4A1A using [3H]cAMP by packard topcount scintillation counting analysis
pIC50: −log10 of the molar value.
measured_parameter: pIC50

Ask: Any idea what pIC50 came out for `Cc1ccc(O)c(C(=O)N[C@H]2CC[C@@H](NC(=O)c3cc(F)cnc3Oc3cccc(-c4ccc(CN5C[C@@H](C)N[C@@H](C)C5)cc4CN4CCOCC4)c3)CC2)c1` on UniProt:P27815?
Reply: > 8.00

* * *

Molecular target: Voltage-gated inwardly rectifying potassium channel KCNH2 (Homo sapiens, UniProt Q12809)
Sequence (Q12809 whole entry): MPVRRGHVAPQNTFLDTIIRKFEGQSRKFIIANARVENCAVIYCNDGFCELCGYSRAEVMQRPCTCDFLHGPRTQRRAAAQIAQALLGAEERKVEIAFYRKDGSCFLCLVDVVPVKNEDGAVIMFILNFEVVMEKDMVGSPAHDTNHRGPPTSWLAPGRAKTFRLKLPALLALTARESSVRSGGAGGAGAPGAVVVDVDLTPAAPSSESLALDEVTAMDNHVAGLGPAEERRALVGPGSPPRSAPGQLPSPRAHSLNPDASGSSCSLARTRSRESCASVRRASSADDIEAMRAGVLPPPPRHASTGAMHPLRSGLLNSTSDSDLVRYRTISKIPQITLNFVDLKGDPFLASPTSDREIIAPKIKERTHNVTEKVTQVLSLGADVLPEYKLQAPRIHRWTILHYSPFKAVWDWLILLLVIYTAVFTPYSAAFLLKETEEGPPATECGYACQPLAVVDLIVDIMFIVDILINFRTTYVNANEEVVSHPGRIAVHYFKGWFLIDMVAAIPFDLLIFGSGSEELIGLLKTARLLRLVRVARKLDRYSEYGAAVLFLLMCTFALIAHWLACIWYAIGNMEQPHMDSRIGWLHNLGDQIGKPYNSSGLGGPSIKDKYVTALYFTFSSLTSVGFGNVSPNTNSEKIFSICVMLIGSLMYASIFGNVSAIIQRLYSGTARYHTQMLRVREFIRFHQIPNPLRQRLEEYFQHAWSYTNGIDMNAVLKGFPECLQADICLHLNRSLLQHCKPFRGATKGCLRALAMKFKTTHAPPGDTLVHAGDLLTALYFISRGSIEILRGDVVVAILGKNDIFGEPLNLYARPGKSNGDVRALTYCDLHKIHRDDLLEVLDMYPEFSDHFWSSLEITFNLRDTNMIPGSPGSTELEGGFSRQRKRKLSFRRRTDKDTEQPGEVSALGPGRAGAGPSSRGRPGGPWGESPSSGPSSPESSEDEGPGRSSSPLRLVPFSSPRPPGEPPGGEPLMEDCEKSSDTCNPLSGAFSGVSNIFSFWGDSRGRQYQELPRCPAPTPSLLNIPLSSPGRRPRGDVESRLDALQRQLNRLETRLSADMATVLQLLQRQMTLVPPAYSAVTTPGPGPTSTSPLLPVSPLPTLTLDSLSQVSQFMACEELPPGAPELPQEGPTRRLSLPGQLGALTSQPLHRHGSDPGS
Would you kindly list IC50 for each of these molecules?
One number for each entry, in µM.

| smiles_text | unit_annotation | IC50 |
| --- | --- | --- |
| Cc1csc(C(=O)N[C@H]2CC[C@@H](NC(=O)c3cc(F)cnc3Oc3cccc(-c4ccc(CN5C[C@@H](C)N[C@@H](C)C5)cc4CN4CCOCC4)c3)CC2)n1 | µM | 20 |
| Cc1cc(C(=O)N[C@H]2CC[C@@H](NC(=O)c3cc(F)cnc3Oc3cccc(-c4ccc(O)cc4CN4CCOCC4)c3)CC2)nn1C | µM | 31.6 |

Would you kindly look at the next entry?
Ask: Any idea what IC50 came out for `Cc1ccc(O)c(C(=O)N[C@H]2CC[C@@H](NC(=O)c3cc(F)cnc3Oc3cccc(-c4ccc(CN5C[C@@H](C)N[C@@H](C)C5)cc4CN4CCOCC4)c3)CC2)c1` on Voltage-gated inwardly rectifying potassium channel KCNH2 (Homo sapiens, UniProt Q12809)?
Reply: 6.31

* * *

Target: Cytochrome P450 2D6 (Homo sapiens, UniProt P10635)
Sequence (P10635 whole entry): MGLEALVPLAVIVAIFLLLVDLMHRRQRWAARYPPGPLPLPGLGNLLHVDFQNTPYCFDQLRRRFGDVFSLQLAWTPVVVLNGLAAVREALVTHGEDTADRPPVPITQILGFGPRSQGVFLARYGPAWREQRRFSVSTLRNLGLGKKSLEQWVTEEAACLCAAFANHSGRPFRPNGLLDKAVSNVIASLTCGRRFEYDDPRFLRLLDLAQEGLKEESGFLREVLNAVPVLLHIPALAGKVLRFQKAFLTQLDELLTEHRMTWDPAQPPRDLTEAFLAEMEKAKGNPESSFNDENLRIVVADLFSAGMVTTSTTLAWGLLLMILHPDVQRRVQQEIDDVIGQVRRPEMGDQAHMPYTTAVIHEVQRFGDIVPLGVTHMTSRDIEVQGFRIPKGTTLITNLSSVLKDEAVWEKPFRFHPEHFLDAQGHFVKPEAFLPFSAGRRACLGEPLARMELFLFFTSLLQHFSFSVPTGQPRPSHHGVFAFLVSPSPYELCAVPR
pIC50: −log10 of the molar value.
measured_parameter: pIC50

// solved cases for pIC50 follow
| smiles_text | endpoint_result |
| --- | --- |
| Cc1cccc2nc(C(=O)N[C@H]3CC[C@@H](NC(=O)c4cc(F)cnc4Oc4cccc(-c5ccc(CN6CCC(N7CCCC7)CC6)cc5)c4)CC3)cn12 | < 6.00 |
| Cc1cc(C(=O)N[C@H]2CC[C@@H](NC(=O)c3cc(F)cnc3Oc3cccc(-c4ccc(O)cc4CN4CCOCC4)c3)CC2)nn1C | < 5.00 |
| Cc1cc(C(=O)N[C@H]2CC[C@@H](NC(=O)c3cc(F)cnc3Oc3cccc(-c4ccc(CCN5CCC(N6CCCC6)CC5)cc4)c3)CC2)nn1C | < 6.00 |

Ask: So what does the record say about pIC50 for `Cc1cccc2nc(C(=O)N[C@H]3CC[C@@H](NC(=O)c4cc(F)cnc4Oc4cccc(-c5ccc(CN6C[C@@H](C)N[C@@H](C)C6)cc5)c4)CC3)cn12` ?
Reply: < 6.00

* * *

Target: 3',5'-cyclic-AMP phosphodiesterase 4B (Rattus norvegicus)
Sequence (P14646 whole entry): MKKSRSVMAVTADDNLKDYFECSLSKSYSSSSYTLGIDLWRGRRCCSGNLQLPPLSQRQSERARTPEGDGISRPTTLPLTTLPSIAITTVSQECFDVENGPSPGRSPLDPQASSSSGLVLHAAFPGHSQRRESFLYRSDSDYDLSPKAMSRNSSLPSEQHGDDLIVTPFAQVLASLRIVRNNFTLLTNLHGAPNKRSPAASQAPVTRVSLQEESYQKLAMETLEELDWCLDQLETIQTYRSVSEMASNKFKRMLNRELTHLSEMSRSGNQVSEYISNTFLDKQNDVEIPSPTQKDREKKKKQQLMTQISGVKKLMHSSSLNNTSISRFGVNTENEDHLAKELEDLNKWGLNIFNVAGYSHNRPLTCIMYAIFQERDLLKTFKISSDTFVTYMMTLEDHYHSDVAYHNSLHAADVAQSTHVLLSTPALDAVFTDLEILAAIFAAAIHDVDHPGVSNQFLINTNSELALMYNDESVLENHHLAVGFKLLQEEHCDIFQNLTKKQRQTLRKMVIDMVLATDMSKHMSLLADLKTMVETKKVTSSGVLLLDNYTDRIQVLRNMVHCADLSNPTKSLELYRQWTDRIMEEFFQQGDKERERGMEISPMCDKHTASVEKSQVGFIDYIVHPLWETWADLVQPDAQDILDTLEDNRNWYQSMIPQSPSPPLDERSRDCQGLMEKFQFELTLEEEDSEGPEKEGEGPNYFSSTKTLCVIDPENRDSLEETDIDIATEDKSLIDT
measured_parameter: IC50 (pM)
One number for each entry, in pM.

Ask: So what does the record say about IC50 for `Cc1csc(C(=O)N[C@H]2CC[C@@H](NC(=O)c3cc(F)cnc3Oc3cccc(-c4ccc(CN5C[C@@H](C)N[C@@H](C)C5)cc4CN4CCOCC4)c3)CC2)n1` ?
Reply: 20

* * *

Would you kindly list fraction unbound for each of these compounds?
Experiment: Fraction unbound in human plasma
Format: ADME, cell-free
Give bare numbers.

Hi, could you look up fraction unbound for each item in my list?
1. Cc1cc(C(=O)N[C@H]2CC[C@@H](NC(=O)c3cc(F)cnc3Oc3cccc(-c4cccc(CN5C[C@@H](C)N[C@@H](C)C5)c4)c3)CC2)nn1C
2. Cc1cc(C(=O)N[C@H]2CC[C@@H](NC(=O)c3cc(F)cnc3Oc3cccc(-c4ccc(CCN5CCC(N6CCCC6)CC5)cc4)c3)CC2)nn1C
3. Cc1cccc2nc(C(=O)N[C@H]3CC[C@@H](NC(=O)c4cc(F)cnc4Oc4cccc(-c5ccc(CN6CCC(N7CCCC7)CC6)cc5)c4)CC3)cn12

Reply:
1: 0.18; 2: 0.042; 3: 0.02

* * *

Would you kindly list microsomal CLint for each of these compounds?
Assay: Intrinsic clearance in human liver microsomes
Assay type: ADME
Details: read-out: CLH
One number for each entry, in µL/min/mg.

| smiles_text | unit_annotation | endpoint_result |
| --- | --- | --- |
| Cc1ccc(O)c(C(=O)N[C@H]2CC[C@@H](NC(=O)c3cc(F)cnc3Oc3ccc(F)c(F)c3)CC2)c1 | µL/min/mg | 116 |

Would you kindly look at the next entry?
Ask: So what does the record say about microsomal CLint for `Cc1ccc(O)c(C(=O)N[C@H]2CC[C@@H](NC(=O)c3cc(F)cnc3Oc3cccc(-c4ccc(CN5C[C@@H](C)N[C@@H](C)C5)cc4CN4CCOCC4)c3)CC2)c1` ?
Reply: 78

* * *

Biological target: Cytochrome P450 2C19 (Homo sapiens, UniProt P33261)
Sequence (P33261 whole entry): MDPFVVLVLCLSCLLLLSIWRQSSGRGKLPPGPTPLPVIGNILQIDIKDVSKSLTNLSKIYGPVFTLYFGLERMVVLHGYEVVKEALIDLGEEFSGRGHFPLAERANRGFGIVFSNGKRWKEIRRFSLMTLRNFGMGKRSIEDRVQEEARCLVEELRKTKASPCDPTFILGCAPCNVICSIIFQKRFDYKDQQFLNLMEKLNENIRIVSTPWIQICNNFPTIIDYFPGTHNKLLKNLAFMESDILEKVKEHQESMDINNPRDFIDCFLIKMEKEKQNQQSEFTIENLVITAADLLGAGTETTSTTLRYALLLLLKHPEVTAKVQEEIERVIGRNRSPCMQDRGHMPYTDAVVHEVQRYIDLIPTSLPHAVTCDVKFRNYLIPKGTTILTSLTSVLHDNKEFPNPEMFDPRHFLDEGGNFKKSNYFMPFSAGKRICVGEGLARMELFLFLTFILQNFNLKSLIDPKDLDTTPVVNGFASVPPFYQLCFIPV
pIC50: −log10 of the molar value.
measured_parameter: pIC50

Ask: So what does the record say about pIC50 for `Cc1cc(C(=O)N[C@H]2CC[C@@H](NC(=O)c3cc(F)cnc3Oc3cccc(-c4ccc(CCCN5C[C@@H](C)N[C@@H](C)C5)cc4)c3)CC2)nn1C` ?
Reply: < 6.00

* * *

Assay: Half life in rat at 1 mg/kg, iv
Assay type: ADME, organism-based
Design: dose 1 mg/kg, route intravenous
Conditions: in vivo
Would you kindly list half-life for each of these compounds?
One number for each entry, in h.

| smiles_text | measured_parameter | endpoint_result |
| --- | --- | --- |
| Cc1cccc2nc(C(=O)N[C@H]3CC[C@@H](NC(=O)c4cc(F)cnc4Oc4cccc(-c5ccc(CN6CCC(N7CCCC7)CC6)cc5)c4)CC3)cn12 | half-life | 12 |
| Cc1csc(C(=O)N[C@H]2CC[C@@H](NC(=O)c3cc(F)cnc3Oc3cccc(-c4ccc(CN5C[C@@H](C)N[C@@H](C)C5)cc4CN4CCOCC4)c3)CC2)n1 | half-life | 7 |

Would you kindly look at the next entry?
Ask: So what does the record say about half-life for `C[C@@H]1CN(Cc2ccc(-c3cccc(Oc4ncc(F)cc4C(=O)N[C@H]4CC[C@@H](NC(=O)c5cc6ccccn6n5)CC4)c3)cc2)C[C@H](C)N1` ?
Reply: 5.8

* * *

System: Rattus norvegicus
Assay: Apparent volume of distribution in rat at 1 mg/kg, iv
Type: ADME, organism-based
Design: dose 1 mg/kg, route intravenous
Settings: in vivo
measured_parameter: Vz/F (L/kg)
One number for each entry, in L/kg.

// solved cases for Vz/F follow
| smiles_text | unit_annotation | Vz/F |
| --- | --- | --- |
| Cc1cccc2nc(C(=O)N[C@H]3CC[C@@H](NC(=O)c4cc(F)cnc4Oc4cccc(-c5ccc(CN6C[C@@H](C)N[C@@H](C)C6)cc5)c4)CC3)cn12 | L/kg | 28 |
| Cc1ccc(O)c(C(=O)N[C@H]2CC[C@@H](NC(=O)c3cc(F)cnc3Oc3cccc(-c4ccc(CN5C[C@@H](C)N[C@@H](C)C5)cc4CN4CCOCC4)c3)CC2)c1 | L/kg | 30 |

Would you kindly look at the next entry?
Ask: So what does the record say about Vz/F for `C[C@@H]1CN(Cc2ccc(-c3cccc(Oc4ncc(F)cc4C(=O)N[C@H]4CC[C@@H](NC(=O)c5cc6ccccn6n5)CC4)c3)cc2)C[C@H](C)N1` ?
Reply: 30

* * *

Would you kindly list solubility for each of these compounds?
Experiment: Aqueous solubility of the compound at pH 7.4
Type: physicochemical
Details: aqueous medium
Give bare numbers, in µM.

| smiles_text | unit_annotation | solubility |
| --- | --- | --- |
| Cc1cc(C(=O)N[C@H]2CC[C@@H](NC(=O)c3cc(F)cnc3Oc3cccc(-c4ccc(CN5C[C@@H](C)N[C@@H](C)C5)c(O)c4)c3)CC2)nn1C | µM | 890 |
| Cc1ccc(O)c(C(=O)N[C@H]2CC[C@@H](NC(=O)c3cc(F)cnc3Oc3cccc(-c4ccc(CN5C[C@@H](C)N[C@@H](C)C5)cc4CN4CCOCC4)c3)CC2)c1 | µM | 213 |

Would you kindly look at the next entry?
Ask: So what does the record say about solubility for `Cc1cccc2nc(C(=O)N[C@H]3CC[C@@H](NC(=O)c4cc(F)cnc4Oc4cccc(-c5ccc(CN6C[C@@H](C)N[C@@H](C)C6)cc5)c4)CC3)cn12` ?
Reply: 460
